System: ABUTH
Assay: Pre-emergence herbicidal activity, glasshouse pot test; also: key: 5=total damage to plant; 0=no damage to plant
Type: in vivo
Experimental Conditions: rate 1000 g/Ha, evaluated after 13 days, scale 0-5
Measurement Type: ABUTH damage score, application pre-emergence
# print the numeric value only

Examples with answers:
COCCOCc1cnc(N2C(=O)N(C)C(C)C2O)cc1C(F)(F)F (stereo not drawn) : 5
CON1C(=O)N(c2ccc(C(=O)NC(C)(C)C)cn2)C(O)C1C (stereo not drawn) : 5

Looking up C#CCN1C(=O)N(c2cc(C(F)(F)F)ccn2)C(O)C1C (stereo not drawn) , I see its ABUTH damage score, application pre-emergence listed as 5

====

Overview of recorded ECHCG damage score, application pre-emergence for various compounds
System: ECHCG
Assay: Pre-emergence herbicidal activity, glasshouse pot test
Type: in vivo
Experimental Conditions: rate 1000 g/Ha, evaluated after 13 days, scale 0-5

CC1C(O)N(c2ccc(C(F)(F)F)cn2)C(=O)N1C (stereo not shown) : 4

Item: Cc1ccc(-c2cnc(N3C(=O)N(C)C(C)C3O)cc2C(F)(F)F)cn1 (stereo not shown) | System: ECHCG | ECHCG damage score, application pre-emergence: 5

Item: CC1C(O)N(c2cc(C(F)(F)C(F)(F)F)ccn2)C(=O)N1C (single isomer, unassigned) | System: ECHCG | ECHCG damage score, application pre-emergence: 5

Item: COC1C(O)N(c2cc(C(F)(F)F)c(-c3cncnc3)cn2)C(=O)N1C (stereo not shown) | System: ECHCG | ECHCG damage score, application pre-emergence: 3

Item: CC1C(O)N(c2cc(C(F)(F)F)c(C(=O)NC(C)(C)C)cn2)C(=O)N1C (stereo not shown) | System: ECHCG | ECHCG damage score, application pre-emergence: 5

Item: C[C@@H]1C(O)N(c2cc(C(F)(F)F)ccn2)C(=O)N1C (mixture of isomers) | System: ECHCG | ECHCG damage score, application pre-emergence: 5

Item: C#CCOC1C(O)N(c2cc(C(F)(F)F)ccn2)C(=O)N1C (stereo not shown) | System: ECHCG | ECHCG damage score, application pre-emergence: 5
